experiment: qHTS assay to identify small molecule agonists of the estrogen receptor beta (ER-beta) signaling pathway - cell viability counter screen (AID 1259380); conditions: ER-beta-bla HEK293T viability, CellTiter-Glo luminescence, 16 h; series mostly up to 92.4 µM; also: nearly all actives have a fitted effect of over 30% in size
Results filed as inconclusive are left out. Activity calls are given as the source filed them. Calls follow the shape of the dose curve; as a rule, active = well fitted cell-killing curve with a large enough effect in the repeat runs; inconclusive = weak or mixed curves, or effect the other way; inactive = flat fitted curve, though single readings scatter.
Outcome codes: active, inactive

compound: COc1ccccc1/C=C/C=O
category-label: active

compound: Cc1c(C(N)=O)cc([N+](=O)[O-])cc1[N+](=O)[O-]
category-label: inactive

compound: c1ccc2cc(Nc3ccc(Nc4ccc5ccccc5c4)cc3)ccc2c1
category-label: inactive

compound: NC=O
category-label: inactive

compound: O=P(O)(O)O
category-label: inactive

compound: CC(C)CC(C)(O)C#CC(C)(O)CC(C)C (stereo not drawn)
category-label: inactive

compound: O=CCCCC=O
category-label: inactive

compound: O=C1OC2(c3cc(Br)c(O)c(Br)c3Oc3c2cc(Br)c(O)c3Br)c2c(Cl)c(Cl)c(Cl)c(Cl)c21
category-label: inactive

These measurements were taken from PubChem BioAssay (Tox21).
